- methodDescription: The drug is tested on WLS-310 corresponding to human gut metagenome with ENA study accession number: PRJEB37062 and ENA sample accession number: ERS12561785 for biotransformation under anaerobic condition. The drug concentrations were measured over 9 timepoints collected between 0 and 24 hours of incubation by liquid-chromatography-coupled mass spectrometry (LC–MS); also: call rule not given here
- conditionParameters: 2 µM
readoutLabel: Bacterial Biotransformation

O=C(CCCN1CCC2(CC1)C(=O)NCN2c1ccccc1)c1ccc(F)cc1 : Compound metabolized
CC#CCn1c(N2CCC[C@@H](N)C2)nc2c1c(=O)n(Cc1nc(C)c3ccccc3n1)c(=O)n2C : Compound NOT metabolized
CN(C)C(=O)Oc1cccc([N+](C)(C)C)c1.[Br-] [NEOSTIGMINE BROMIDE] : Compound NOT metabolized
CN1CCC(=C2c3ccccc3CC(=O)c3sccc32)CC1.O=C(O)/C=C/C(=O)O [KETOTIFEN FUMARATE] : Compound metabolized

---

- methodDescription: The drug is tested on WLS-038 corresponding to human gut metagenome with ENA study accession number: PRJEB37062 and ENA sample accession number: ERS12561745 for biotransformation under anaerobic condition. The drug concentrations were measured over 9 timepoints collected between 0 and 24 hours of incubation by liquid-chromatography-coupled mass spectrometry (LC–MS)
- conditionParameters: 2 µM
readoutLabel: Bacterial Biotransformation

The examples below pair each entry with its known result.
COC(=O)C(c1ccccc1)C1CCCCN1 (stereo unspecified) [METHYLPHENIDATE] : Compound NOT metabolized
CC(C)(C)NCC(O)COc1cccc2c1CC(O)C(O)C2 (stereo unspecified) : Compound NOT metabolized
CCCCC(=O)O[C@]1(C(=O)CO)[C@@H](C)C[C@H]2[C@@H]3CCC4=CC(=O)C=C[C@]4(C)[C@@]3(F)[C@@H](O)C[C@@]21C [BETAMETHASONE VALERATE] : Compound metabolized
CC(C)(C)NCC(O)c1cc(Cl)c(N)c(Cl)c1 (stereo unspecified) : Compound NOT metabolized
Nc1nnc(-c2cccc(Cl)c2Cl)c(N)n1 : Compound NOT metabolized
CCOC(=O)C1=C[C@]2(CC)CCCN3CCc4c(n1c1ccccc41)[C@@H]32 : Compound NOT metabolized

Query :: Fill in reported Bacterial Biotransformation for this entry: `CC(=O)O[C@H]1C(=O)[C@@]2(C)[C@H]([C@H](OC(=O)c3ccccc3)[C@]3(O)C[C@H](OC(=O)[C@H](O)[C@@H](NC(=O)c4ccccc4)c4ccccc4)C(C)=C1C3(C)C)[C@]1(OC(C)=O)CO[C@@H]1C[C@@H]2O`
Result :: Compound metabolized

Query :: Fill in reported Bacterial Biotransformation for this entry: Cc1cc(C)cc(OCC2CNC(=O)O2)c1 (stereo unspecified)
Result :: Compound metabolized

Query :: Fill in reported Bacterial Biotransformation for this entry: CC(N)C12CC3CC(CC(C3)C1)C2 (stereo unspecified)
Result :: Compound NOT metabolized

Query :: Fill in reported Bacterial Biotransformation for this entry: `O=C([O-])C[C@H](O)C[C@H](O)/C=C/c1c(C2CC2)nc2ccccc2c1-c1ccc(F)cc1.O=C([O-])C[C@H](O)C[C@H](O)/C=C/c1c(C2CC2)nc2ccccc2c1-c1ccc(F)cc1.[Ca+2]`
Result :: Compound metabolized

Query :: Fill in reported Bacterial Biotransformation for this entry: COCCCC/C(=N\OCCN)c1ccc(C(F)(F)F)cc1.O=C(O)/C=C\C(=O)O [FLUVOXAMINE MALEATE]
Result :: Compound NOT metabolized

---

- methodDescription: The drug is tested on WLS-077 corresponding to human gut metagenome with ENA study accession number: PRJEB37062 and ENA sample accession number: ERS12561750 for biotransformation under anaerobic condition. The drug concentrations were measured over 9 timepoints collected between 0 and 24 hours of incubation by liquid-chromatography-coupled mass spectrometry (LC–MS)
- conditionParameters: 2 µM
readoutLabel: Bacterial Biotransformation

The examples below pair each entry with its known result.
COc1ccc(CN2CCNCC2)c(OC)c1OC.Cl.Cl [TRIMETAZIDINE DIHYDROCHLORIDE] : Compound NOT metabolized
Clc1cccc(Cl)c1N=C1NCCN1 [CLONIDINE] : Compound NOT metabolized
CN(C)C(=O)Oc1cc(OC(=O)N(C)C)cc(C(O)CNC(C)(C)C)c1 (centres undefined) [BAMBUTEROL] : Compound NOT metabolized
CC(CCc1ccccc1)NCC(O)c1ccc(O)c(C(N)=O)c1 (centres undefined) [LABETALOL] : Compound NOT metabolized
CCN(CC)CCOC(=O)C1(C2CCCCC2)CCCCC1 [DICYCLOMINE] : Compound NOT metabolized

Query :: Fill in reported Bacterial Biotransformation for this entry: CCCC(C)(COC(N)=O)COC(=O)NC(C)C (centres undefined) [CARISOPRODOL]
Result :: Compound metabolized

Query :: Fill in reported Bacterial Biotransformation for this entry: CC(=O)Nc1ccc(OC(C)=O)cc1 [DIACETAMATE]
Result :: Compound metabolized

Query :: Fill in reported Bacterial Biotransformation for this entry: C[C@@H](c1ncncc1F)[C@](O)(Cn1cncn1)c1ccc(F)cc1F [VORICONAZOLE]
Result :: Compound metabolized

Query :: Fill in reported Bacterial Biotransformation for this entry: CN(CCOc1ccc(CC2SC(=O)NC2=O)cc1)c1ccccn1.O=C(O)/C=C\C(=O)O (centres undefined) [ROSIGLITAZONE MALEATE]
Result :: Compound NOT metabolized

---

- conditionParameters: human gut metagenome, 24 h, 2 µM
readoutLabel: Bacterial Biotransformation

The examples below pair each entry with its known result.
Nc1nnc(-c2cccc(Cl)c2Cl)c(N)n1 : Compound NOT metabolized
CCCN(CCC)CCc1cccc2c1CC(=O)N2 : Compound NOT metabolized
O=C([O-])C[C@H](O)C[C@H](O)/C=C/c1c(C2CC2)nc2ccccc2c1-c1ccc(F)cc1.O=C([O-])C[C@H](O)C[C@H](O)/C=C/c1c(C2CC2)nc2ccccc2c1-c1ccc(F)cc1.[Ca+2] : Compound NOT metabolized
O=C(NC(Cc1cc(=O)[nH]c2ccccc12)C(=O)O)c1ccc(Cl)cc1 (centres undefined) [REBAMIPIDE] : Compound metabolized
COc1cc2nc(N3CCN(C(=O)C4CCCO4)CC3)nc(N)c2cc1OC (centres undefined) : Compound NOT metabolized
O=C(CCCN1CCC2(CC1)C(=O)NCN2c1ccccc1)c1ccc(F)cc1 : Compound NOT metabolized

Query :: Fill in reported Bacterial Biotransformation for this entry: C#C[C@]1(OC(C)=O)CC[C@H]2[C@@H]3CCC4=C/C(=N/O)CC[C@@H]4[C@H]3CC[C@@]21CC [NORGESTIMATE]
Result :: Compound NOT metabolized

Query :: Fill in reported Bacterial Biotransformation for this entry: `c1ccc2[nH]c(-c3cscn3)nc2c1`
Result :: Compound NOT metabolized

Query :: Fill in reported Bacterial Biotransformation for this entry: `COC1=C(OC)C(=O)C(CCCCCCCCCCO)=C(C)C1=O`
Result :: Compound metabolized

---

- methodDescription: The drug is tested on WLS-073 corresponding to human gut metagenome with ENA study accession number: PRJEB37062 and ENA sample accession number: ERS12561749 for biotransformation under anaerobic condition. The drug concentrations were measured over 9 timepoints collected between 0 and 24 hours of incubation by liquid-chromatography-coupled mass spectrometry (LC–MS)
- conditionParameters: 2 µM
readoutLabel: Bacterial Biotransformation

CN1[C@@H]2CC[C@H]1C[C@@H](OC(=O)[C@H](CO)c1ccccc1)C2 : Compound NOT metabolized
CCCCC(=O)O[C@]1(C(=O)CO)[C@@H](C)C[C@H]2[C@@H]3CCC4=CC(=O)C=C[C@]4(C)[C@@]3(F)[C@@H](O)C[C@@]21C [BETAMETHASONE VALERATE] : Compound NOT metabolized
N#Cc1ccc2c(c1)N(CCCN1CCC(O)CC1)c1ccccc1S2 : Compound NOT metabolized
OC(c1cc(C(F)(F)F)nc2c(C(F)(F)F)cccc12)C1CCCCN1 (stereo not drawn) : Compound metabolized
CCN(CC)CCOC(=O)C1(C2CCCCC2)CCCCC1 : Compound NOT metabolized

Query :: Fill in reported Bacterial Biotransformation for this entry: CN(C)CCC=C1c2ccccc2COc2ccccc21 [DOXEPIN]
Result :: Compound metabolized

Query :: Fill in reported Bacterial Biotransformation for this entry: CC12CC3CC(C)(C1)CC(N)(C3)C2 [MEMANTINE]
Result :: Compound NOT metabolized

Query :: Fill in reported Bacterial Biotransformation for this entry: CCCN1C[C@H](CSC)C[C@@H]2c3cccc4[nH]cc(c34)C[C@H]21.CS(=O)(=O)O [PERGOLIDE MESYLATE]
Result :: Compound NOT metabolized

---

- methodDescription: The drug is tested on WLS-027 corresponding to human gut metagenome with ENA study accession number: PRJEB37062 and ENA sample accession number: ERS12561744 for biotransformation under anaerobic condition. The drug concentrations were measured over 9 timepoints collected between 0 and 24 hours of incubation by liquid-chromatography-coupled mass spectrometry (LC–MS)
- conditionParameters: 2 µM
readoutLabel: Bacterial Biotransformation

CCCCC(=O)O[C@]1(C(=O)CO)[C@@H](C)C[C@H]2[C@@H]3CCC4=CC(=O)C=C[C@]4(C)[C@@]3(F)[C@@H](O)C[C@@]21C [BETAMETHASONE VALERATE] : Compound metabolized
CC#C[C@]1(O)CC[C@H]2[C@@H]3CCC4=CC(=O)CCC4=C3[C@@H](c3ccc(N(C)C)cc3)C[C@@]21C : Compound metabolized
